assaySystem: human GLP-1R (human, UniProt P43220)
testProtocol: cell-based or functional assay
parameterMeasured: Agonist activity (EC50, M)

{"binder": "YXEGTXISDYSIXLDRXAQXNFVNWXLAQRPSSGAPPPS (not fully specified; MeTyr at 1; Aib at 2, 13, 20; Iva at 6, 26; Lys(Eda-PEG(3)-PEG(3)-) at 17; C-terminal amide (-NH2)) [Compound 307]", "parameterMeasured": "Agonist activity (EC50, M)", "value": "> 1e-06 M"}
{"binder": "YXEGTXISDYSIXXDRXAQXNFVNWXLAQRPSSGAPPPS (Me-Tyr at 1; Aib at 2, 13, 17, 20; Iva at 6, 26; Lys(Eda-GGGGGG-) at 14; C-terminal amide (-NH2) (as printed for SEQ ID NO: 355 in the 1st table)) [Compound 342]", "parameterMeasured": "Agonist activity (EC50, M)", "value": "> 1e-06 M"}
{"binder": "YXEGTXISDYSIXLDRXAQXNFVNWXLAQRPSSGAPPPS (MeTyr at 1; Aib at 2, 13, 20; Iva at 6, 26; Lys(Oda-GGGGG-) at 17; C-terminal amide (-NH2)) [Compound 349]", "parameterMeasured": "Agonist activity (EC50, M)", "value": "> 1e-06 M"}

In the following, a different binder is considered.
[ask] State the recorded Agonist activity (EC50, M) for this entry: YXEGTXISDYSIXXDRXAQXNFVNWXLAQRPSSGAPPPS (MeTyr at 1; Aib at 2, 13, 17, 20; Iva at 6, 26; Lys(Eda-GGGGG-) at 14; C-terminal amide (-NH2)) [Compound 341]
[reply] > 1e-06 M
